Origin of values: patent US10100129B2

# Tested Target: T1, CD32b (FcgRIIb) (Homo sapiens, UniProt P31994)
# T1 sequence (P31994 43-310): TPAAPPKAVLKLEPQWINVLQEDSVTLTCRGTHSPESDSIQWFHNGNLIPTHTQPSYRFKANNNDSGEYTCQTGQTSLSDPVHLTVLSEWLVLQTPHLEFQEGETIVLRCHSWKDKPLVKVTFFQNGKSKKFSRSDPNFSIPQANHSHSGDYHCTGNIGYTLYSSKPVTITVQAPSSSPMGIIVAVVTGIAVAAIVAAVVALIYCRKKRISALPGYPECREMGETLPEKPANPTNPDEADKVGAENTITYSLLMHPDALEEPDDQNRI
# Assay Method Text: SPR binding to FcgR-his: CD32b
# Assay Context: 1 μM antibody, anti-his Fab captured FcgR-his
Measure: % Rmax, binding to hCD32b (%)
Provide only the numeric value, understood in %.

Some molecules with recorded % Rmax, binding to hCD32b:
{"Molecule": "mAb7-IgG2.5G1-AY-V27 (protein, left off: another chain or arm of the molecule) constant: ASTKGPSVFPLAPSSRSTSESTAALGCLVKDYFPEPVTVSWNSGALTSGVHTFPAVLQSSGLYSLSSVVTVPSSNFGTQTYTCNVDHKPSNTKVDKTVERKCCVECPPCPAPELLGGPSVFLFPPKPKDTLMISRTPEVTCVVVDVEHEDPEVKFNWYVDGVEVHNAKTKPREEQYNSTYRVVSVLTVLHQDWLNGKEYKCKVSNKALPAPIEKTISKAKGQPREPQVYTLPPSREEMTKNQVSLTCLVKGFYPSDIAVEWESNGQPENNYKTTPPVLDSDGSFFLYSKLTVDKSRWQQGNVFSCSVMHEALHNHYTQKSLSLSPGK", "Measure": "% Rmax, binding to hCD32b", "Number": 84}
{"Molecule": "mAb6-IgG2.3 (protein, left off: another chain or arm of the molecule) constant: ASTKGPSVFPLAPCSRSTSESTAALGCLVKDYFPEPVTVSWNSGALTSGVHTFPAVLQSSGLYSLSSVVTVPSSNFGTQTYTCNVDHKPSNTKVDKTVERKSCVECPPCPAPPVAGPSVFLFPPKPKDTLMISRTPEVTCVVVDVSHEDPEVQFNWYVDGVEVHNAKTKPREEQFNSTFRVVSVLTVVHQDWLNGKEYKCKVSNKGLPAPIEKTISKTKGQPREPQVYTLPPSREEMTKNQVSLTCLVKGFYPSDIAVEWESNGQPENNYKTTPPMLDSDGSFFLYSKLTVDKSRWQQGNVFSCSVMHEALHNHYTQKSLSLSPGK", "Measure": "% Rmax, binding to hCD32b", "Number": 3}
{"Molecule": "mAb8-IgG2.3G1-AY-V27 (protein, left off: another chain or arm of the molecule) constant: ASTKGPSVFPLAPCSRSTSESTAALGCLVKDYFPEPVTVSWNSGALTSGVHTFPAVLQSSGLYSLSSVVTVPSSNFGTQTYTCNVDHKPSNTKVDKTVERKSCVECPPCPAPELLGGPSVFLFPPKPKDTLMISRTPEVTCVVVDVEHEDPEVKFNWYVDGVEVHNAKTKPREEQYNSTYRVVSVLTVLHQDWLNGKEYKCKVSNKALPAPIEKTISKAKGQPREPQVYTLPPSREEMTKNQVSLTCLVKGFYPSDIAVEWESNGQPENNYKTTPPVLDSDGSFFLYSKLTVDKSRWQQGNVFSCSVMHEALHNHYTQKSLSLSPGK", "Measure": "% Rmax, binding to hCD32b", "Number": 67}

Using the record for mAb11-IgG2.3 (protein, left off: another chain or arm of the molecule) constant: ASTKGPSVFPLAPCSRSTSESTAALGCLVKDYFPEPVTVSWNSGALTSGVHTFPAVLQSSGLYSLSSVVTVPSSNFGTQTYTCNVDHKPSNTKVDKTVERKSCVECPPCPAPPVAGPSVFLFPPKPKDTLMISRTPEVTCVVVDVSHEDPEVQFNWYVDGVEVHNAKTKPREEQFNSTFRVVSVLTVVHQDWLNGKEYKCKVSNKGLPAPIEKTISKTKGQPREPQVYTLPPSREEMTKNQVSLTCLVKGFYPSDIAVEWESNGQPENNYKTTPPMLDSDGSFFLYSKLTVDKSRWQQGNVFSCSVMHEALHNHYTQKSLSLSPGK , state its measured % Rmax, binding to hCD32b.
5
